target: Procathepsin L (Homo sapiens, UniProt P07711)
Sequence (P07711 whole entry): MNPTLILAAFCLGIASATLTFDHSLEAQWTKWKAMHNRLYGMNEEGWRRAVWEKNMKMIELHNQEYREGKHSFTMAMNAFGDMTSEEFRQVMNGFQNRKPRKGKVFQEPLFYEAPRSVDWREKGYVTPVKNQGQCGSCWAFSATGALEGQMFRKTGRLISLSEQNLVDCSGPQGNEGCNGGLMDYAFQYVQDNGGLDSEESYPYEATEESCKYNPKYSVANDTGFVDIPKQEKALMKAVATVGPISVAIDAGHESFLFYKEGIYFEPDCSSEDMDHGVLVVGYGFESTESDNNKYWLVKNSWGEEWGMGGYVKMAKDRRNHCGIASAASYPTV
observed.property: Ki (nM)

1. CC(C)C[C@H](NC(=O)OC(C)(C)C)C(=O)N1C[C@H]1C(=O)N1[C@H](C(=O)OCc2ccccc2)[C@@H]1C(=O)OCc1ccccc1	13

----------
Consider the following compounds and their measured pEC50 readings.
target: ATP-dependent Clp protease proteolytic subunit, mitochondrial (Homo sapiens)
Sequence (Q16740 whole entry, the tested form may be a part): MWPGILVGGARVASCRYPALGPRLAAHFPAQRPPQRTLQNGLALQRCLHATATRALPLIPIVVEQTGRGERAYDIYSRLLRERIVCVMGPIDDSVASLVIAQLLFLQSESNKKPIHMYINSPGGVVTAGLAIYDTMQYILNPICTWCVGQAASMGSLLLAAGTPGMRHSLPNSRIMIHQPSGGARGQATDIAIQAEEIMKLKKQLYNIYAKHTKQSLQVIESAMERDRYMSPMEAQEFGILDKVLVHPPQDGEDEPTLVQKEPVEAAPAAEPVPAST
protocol: Agonist activity at human recombinant CLpP (57 to 277 amino acids) expressed in Escherichia coli using fluorogenic peptide AC-WLA-AMC as substrate incubated for 10 mins by fluorescence based assay
pEC50: −log10 of the molar value.
observed.property: pEC50

1) C#Cc1cccc(CN2CCC3=C(C2)C(=O)N(Cc2ccc(C)cc2)C2=NCCN23)c1	6.10
2) N#Cc1cccc(CN2CCC3=C(C2)C(=O)N(Cc2ccc(Cl)cc2)C2=NCCN23)c1	6.92
3) Cn1c2c(c(=O)n(Cc3ccc(Cl)cc3)c1=O)CN(Cc1cccc(C#N)c1)CC2	6.87
4) Cc1cccc(CN2CCc3c(c(=O)n(Cc4ccc(C(F)(F)F)cc4)c(=O)n3CCCN)C2)c1	6.92
5) N#Cc1cccc(CN2CCC3=C(C2)C(=O)N(Cc2ccc(C(F)(F)F)cc2)C2=NCCN23)c1	6.92

----------
target: 72 kDa type IV collagenase (Homo sapiens)
Sequence (P08253 whole entry): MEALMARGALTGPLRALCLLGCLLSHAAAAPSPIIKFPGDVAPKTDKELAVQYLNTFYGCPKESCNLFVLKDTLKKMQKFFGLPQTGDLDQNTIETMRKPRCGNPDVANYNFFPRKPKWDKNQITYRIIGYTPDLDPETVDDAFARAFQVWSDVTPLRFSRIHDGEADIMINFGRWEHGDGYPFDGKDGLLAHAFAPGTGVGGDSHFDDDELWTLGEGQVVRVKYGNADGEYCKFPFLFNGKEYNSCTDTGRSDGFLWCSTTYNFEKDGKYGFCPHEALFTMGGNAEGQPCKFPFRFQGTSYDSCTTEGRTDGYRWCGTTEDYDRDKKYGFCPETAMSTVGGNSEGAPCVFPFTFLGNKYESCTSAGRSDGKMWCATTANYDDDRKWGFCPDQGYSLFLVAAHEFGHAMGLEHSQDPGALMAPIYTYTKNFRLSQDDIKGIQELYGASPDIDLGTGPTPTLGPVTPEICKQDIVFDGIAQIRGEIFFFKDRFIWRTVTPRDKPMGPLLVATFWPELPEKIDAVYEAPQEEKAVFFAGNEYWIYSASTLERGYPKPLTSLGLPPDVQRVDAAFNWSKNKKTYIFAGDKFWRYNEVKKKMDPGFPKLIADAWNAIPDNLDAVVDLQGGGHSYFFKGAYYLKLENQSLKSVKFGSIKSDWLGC
Collected IC50 values appear next to each entry.
observed.property: IC50

1. CCN([C@@H](C(=O)O)C(C)C)S(=O)(=O)c1ccc(-c2nc(-c3ccc(C)s3)no2)cc1	3.7 nM
2. COc1ccc(-c2ccc(S(=O)(=O)N(OC(C)C)[C@H](CCC3C(=O)c4ccccc4C3=O)C(=O)NO)cc2)cc1	0.67 nM
3. CC(C)N1CCN(C2(c3ccc(Oc4ccc(Br)cc4)cc3)C(=O)NC(=O)NC2=O)CC1	26 nM
4. COc1ccc(S(=O)(=O)N(Cc2cccnc2)[C@@H](CCF)C(=O)NO)cc1	33 nM
